# Tgt: BM3 A82F/F87V double mutant (DM) heme domain (Priestia megaterium, UniProt P14779, A83F/F88V)
# Construct: The BM3 heme domain proteins (WT and the DM A82F/F87V variant) used in this study were expressed as described in our previous studies; made in house; host or cells: E. coli BL21 (DE3)
# Sequence (P14779 2-472 A83F/F88V): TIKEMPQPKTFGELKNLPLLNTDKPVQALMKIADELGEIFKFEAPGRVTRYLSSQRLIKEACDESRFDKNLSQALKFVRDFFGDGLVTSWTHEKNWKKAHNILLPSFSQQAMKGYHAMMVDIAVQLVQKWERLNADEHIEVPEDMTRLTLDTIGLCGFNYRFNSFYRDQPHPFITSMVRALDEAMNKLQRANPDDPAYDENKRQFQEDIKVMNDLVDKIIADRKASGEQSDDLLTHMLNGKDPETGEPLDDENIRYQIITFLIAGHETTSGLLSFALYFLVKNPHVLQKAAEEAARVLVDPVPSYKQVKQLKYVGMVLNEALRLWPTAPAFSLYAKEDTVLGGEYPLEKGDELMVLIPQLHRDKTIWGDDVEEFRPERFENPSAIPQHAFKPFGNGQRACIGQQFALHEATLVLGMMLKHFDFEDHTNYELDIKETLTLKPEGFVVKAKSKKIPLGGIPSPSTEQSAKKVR
# Protocol: biochemical
# Type: binding, Bacillus megaterium
# Measurement Context: Kd, DM enzyme; Figure S1 legend; tight-binding (Morrison) fit
Parameter Measured: pKd
In simple prose, pKd is minus the logarithm base ten of a concentration in moles per litre.

Read off the recorded pKd for c1ccc(-c2ccc(C(c3ccccc3)n3ccnc3)cc2)cc1 (stereo not shown) [Bifonazole] 6.89

* * *

# Tgt: WT BM3 heme domain (Priestia megaterium)
# Construct: The BM3 heme domain proteins (WT and the DM A82F/F87V variant) used in this study were expressed as described in our previous studies; made in house; host or cells: E. coli BL21 (DE3)
# Sequence (P14779 2-472): as the sequence (P14779 2-472 A83F/F88V) above, with F82A, V87F counted along it
# Protocol: biochemical
# Format: binding, Bacillus megaterium
# Measurement Context: WT BM3 heme domain; maximal peak-minus-trough value divided by P450 Soret peak value
# reported Delta Abs/Soret Peak; entries follow
The response must contain the number and no unit.

>  <Compound>
Clc1ccc(CCC(Cn2ccnc2)Sc2c(Cl)cccc2Cl)cc1 (stereo not drawn) [Butoconazole nitrate]

>  <Delta Abs/Soret Peak>
0.35

$$$$
>  <Compound>
CC(C)(C)C(=O)C(Oc1ccc(Cl)cc1)n1ccnc1 (stereo not drawn)

>  <Delta Abs/Soret Peak>
0.43

$$$$
>  <Compound>
Clc1ccc(C(Cn2ccnc2)OCc2csc3c(Cl)cccc23)c(Cl)c1 (stereo not drawn) [Sertaconazole nitrate]

>  <Delta Abs/Soret Peak>
0.08

$$$$

Read off the recorded Delta Abs/Soret Peak for c1ccc(-c2ccc(C(c3ccccc3)n3ccnc3)cc2)cc1 (stereo not drawn) 0.43

Read off the recorded Delta Abs/Soret Peak for Clc1ccc(C(Cn2ccnc2)OCc2ccc(Sc3ccccc3)cc2)c(Cl)c1 (stereo not drawn) [Fenticonazole nitrate] 0.21

Read off the recorded Delta Abs/Soret Peak for Clc1ccc(C(Cn2ccnc2)OCc2ccsc2Cl)c(Cl)c1 (stereo not drawn) 0.29

* * *

# Tgt: BM3 A82F/F87V double mutant (DM) heme domain (Priestia megaterium, UniProt P14779, A83F/F88V)
# Construct: The BM3 heme domain proteins (WT and the DM A82F/F87V variant) used in this study were expressed as described in our previous studies; made in house; host or cells: E. coli BL21 (DE3)
# Protocol: biochemical
# Format: binding, Bacillus megaterium
# Measurement Context: DM BM3 heme domain; maximal peak-minus-trough value divided by P450 Soret peak value
Parameter Measured: Delta Abs/Soret Peak
The response must contain the number and no unit.

>  <Compound>
c1ccc(-c2ccc(C(c3ccccc3)n3ccnc3)cc2)cc1 (stereo not shown) [Bifonazole]

>  <Delta Abs/Soret Peak>
0.42

$$$$

Read off the recorded Delta Abs/Soret Peak for C[C@@H](c1ncncc1F)[C@](O)(Cn1cncn1)c1ccc(F)cc1F [Voriconazole] 0.21

Read off the recorded Delta Abs/Soret Peak for Clc1ccc(C(Cn2ccnc2)OCc2ccsc2Cl)c(Cl)c1 (stereo not shown) [Tioconazole] 0.44

Read off the recorded Delta Abs/Soret Peak for Clc1ccc(CCC(Cn2ccnc2)Sc2c(Cl)cccc2Cl)cc1 (stereo not shown) [Butoconazole nitrate] 0.47

* * *

# reported Delta Abs Peak (wavelength maximum of absorbance difference spectrum); entries follow
# Tgt: BM3 A82F/F87V double mutant (DM) heme domain (Priestia megaterium, UniProt P14779, A83F/F88V)
# Construct: The BM3 heme domain proteins (WT and the DM A82F/F87V variant) used in this study were expressed as described in our previous studies; made in house; host or cells: E. coli BL21 (DE3)
# Protocol: biochemical
# Type: binding, Bacillus megaterium
# Measurement Context: DM BM3 heme domain
The answer is to be given in nm; state only the numeric part.

>  <Compound>
OC(Cn1cncn1)(Cn1cncn1)c1ccc(F)cc1F

>  <Measurement Units>
nm

>  <Obs Value>
434

$$$$
>  <Compound>
CCC(C)n1ncn(-c2ccc(N3CCN(c4ccc(OCC5COC(Cn6cncn6)(c6ccc(Cl)cc6Cl)O5)cc4)CC3)cc2)c1=O (stereo not drawn)

>  <Measurement Units>
nm

>  <Obs Value>
438

$$$$
>  <Compound>
c1ccc(-c2ccc(C(c3ccccc3)n3ccnc3)cc2)cc1 (stereo not drawn)

>  <Measurement Units>
nm

>  <Obs Value>
436

$$$$
>  <Compound>
C[C@@H](c1ncncc1F)[C@](O)(Cn1cncn1)c1ccc(F)cc1F

>  <Measurement Units>
nm

>  <Obs Value>
435

$$$$
>  <Compound>
Clc1ccc(CCC(Cn2ccnc2)Sc2c(Cl)cccc2Cl)cc1 (stereo not drawn) [Butoconazole nitrate]

>  <Measurement Units>
nm

>  <Obs Value>
433

$$$$
>  <Compound>
CC[C@@H]([C@H](C)O)n1ncn(-c2ccc(N3CCN(c4ccc(OC[C@@H]5CO[C@@](Cn6cncn6)(c6ccc(F)cc6F)C5)cc4)CC3)cc2)c1=O

>  <Measurement Units>
nm

>  <Obs Value>
430

$$$$
>  <Compound>
Clc1ccc(C(Cn2ccnc2)OCc2csc3c(Cl)cccc23)c(Cl)c1 (stereo not drawn) [Sertaconazole nitrate]

>  <Measurement Units>
nm

>  <Obs Value>
433

$$$$
>  <Compound>
Clc1ccc(C(Cn2ccnc2)OCc2ccsc2Cl)c(Cl)c1 (stereo not drawn)

>  <Measurement Units>
nm

>  <Obs Value>
434

$$$$
>  <Compound>
CC(C)(C)C(=O)C(Oc1ccc(Cl)cc1)n1ccnc1 (stereo not drawn)

>  <Measurement Units>
nm

>  <Obs Value>
430

$$$$
>  <Compound>
Clc1ccc(C(Cn2ccnc2)OCc2c(Cl)cccc2Cl)c(Cl)c1 (stereo not drawn) [Isoconazole nitrate]

>  <Measurement Units>
nm

>  <Obs Value>
435

$$$$

Read off the recorded Delta Abs Peak (wavelength maximum of absorbance difference spectrum) for Clc1ccc(C(Cn2ccnc2)OCc2ccc(Sc3ccccc3)cc2)c(Cl)c1 (stereo not drawn) [Fenticonazole nitrate] 434

Read off the recorded Delta Abs Peak (wavelength maximum of absorbance difference spectrum) for C[C@@H](c1nc(-c2ccc(C#N)cc2)cs1)[C@](O)(Cn1cncn1)c1ccc(F)cc1F 434

* * *

# Tgt: BM3 A82F/F87V double mutant (DM) heme domain (Priestia megaterium, UniProt P14779, A83F/F88V)
# Construct: The BM3 heme domain proteins (WT and the DM A82F/F87V variant) used in this study were expressed as described in our previous studies; made in house; host or cells: E. coli BL21 (DE3)
# Protocol: biochemical
# Assay type: binding, Bacillus megaterium
# Measurement Context: DM BM3 heme domain
# Source text: This leads to dioxygen (O2) binding to heme iron and to the progression of the P450 catalytic cycle that leads to monooxygenation of the substrate. […] Spectral binding data were fitted using hyperbolic (Michaelis-Menten)[30] or tight-binding (Morrison)[31] equations, or by using the Hill function[32] in cases where there was a clear sigmoidal dependence of heme absorbance change on azole drug concentration. […]
# reported Delta Abs Trough (wavelength minimum of absorbance difference spectrum); entries follow
The answer is to be given in nm; state only the numeric part.

Some solved cases for reference:
>  <Compound>
Clc1ccc(C(Cn2ccnc2)OCc2csc3c(Cl)cccc23)c(Cl)c1 (centres unmarked) [Sertaconazole nitrate]

>  <Obs Value>
413

$$$$
>  <Compound>
Clc1ccc(C(Cn2ccnc2)OCc2ccsc2Cl)c(Cl)c1 (centres unmarked)

>  <Obs Value>
414

$$$$
>  <Compound>
c1ccc(-c2ccc(C(c3ccccc3)n3ccnc3)cc2)cc1 (centres unmarked)

>  <Obs Value>
413

$$$$
>  <Compound>
C[C@@H](c1ncncc1F)[C@](O)(Cn1cncn1)c1ccc(F)cc1F

>  <Obs Value>
414

$$$$

Field: next compound
Read off the recorded Delta Abs Trough (wavelength minimum of absorbance difference spectrum) for CC(C)(C)C(=O)C(Oc1ccc(Cl)cc1)n1ccnc1 (centres unmarked) 408
